# reported GI50; entries follow
- Tested on: SF-268
- method-notes: NCI tumour cell line growth inhibition, 48 h
Calls of active or inactive are those of the source. Cut-off read from the data, not from the text of the source: active = GI50 up to about 1.1 µM and inactive = higher.
measured-property: GI50

[
  {
    "compound": "CC1=NN(c2nc(N)nc(CS(C)(=O)=O)n2)C(C)(C)C1",
    "test-value": "> 100 µM (inactive)"
  },
  {
    "compound": "C=CC(C)(C)/C(=C\\CO[Si](C(C)C)(C(C)C)C(C)C)C(=O)N(C)c1ccccc1I",
    "test-value": "11.5 µM (inactive)"
  },
  {
    "compound": "COc1ccccc1/N=N/C(=N/NC(=O)c1ccc(C)cc1)c1ccc(N(CCC#N)CCC#N)cc1OC",
    "test-value": "30.5 µM (inactive)"
  },
  {
    "compound": "COc1ccc(NCC#N)cc1",
    "test-value": "> 100 µM (inactive)"
  },
  {
    "compound": "Fc1cccc(F)c1C1SCc2nc3ccccc3n21 (stereo not given)",
    "test-value": "> 100 µM (inactive)"
  },
  {
    "compound": "Nc1ccc(Oc2ccc(C3(c4ccc(Oc5ccc(N)cc5)cc4)C4CC5CC(C4)CC3C5)cc2)cc1",
    "test-value": "20.3 µM (inactive)"
  },
  {
    "compound": "O=C(O)CCn1cnc2c(S)ncnc21",
    "test-value": "> 100 µM (inactive)"
  },
  {
    "compound": "O=C(c1ccc(Cl)cc1)C1OC12C(=O)Nc1c(Cl)cc(Cl)cc12 (stereo not given)",
    "test-value": "51.9 µM (inactive)"
  },
  {
    "compound": "COc1ccc(-c2cc(O)c3cc(OC)c(OC)cc3n2)cc1OC",
    "test-value": "> 100 µM (inactive)"
  },
  {
    "compound": "O=C(Cc1ccccc1)NN1C(=O)C(Cl)C1c1ccc(Cl)cc1 (stereo not given)",
    "test-value": "> 100 µM (inactive)"
  }
]

----------
# reported GI50; entries follow
- Tested on: HL-60
- method-notes: NCI tumour cell line growth inhibition, 48 h
The source made the active and inactive calls. No stated cut-off is given here; in the data, active = GI50 up to about 1.1 µM and inactive = higher. Non-standard residues stand in square brackets, D forms with d. Residues, ends and D or L forms follow the SMILES beside them. *: point of attachment. Ac5c = NC1(C(=O)O)CCCC1; Boc = CC(C)(C)OC(=O)*; tBu = CC(C)(C)*

[
  {
    "compound": "COc1c2ccsc2c(OC)c2ccsc12",
    "GI50": "> 100 µM (inactive)"
  },
  {
    "compound": "CC(=O)OC(Cc1c(O)c2c(C)cccc2oc1=O)C(C)(C)O (stereo unspecified)",
    "GI50": "72.6 µM (inactive)"
  },
  {
    "compound": "O=c1c2ccc(Br)cc2nc(-c2ccccc2)n1NC1OC(CO)C(O)C(O)C1O (stereo unspecified)",
    "GI50": "> 100 µM (inactive)"
  },
  {
    "compound": "NCC(=O)N1CCN(c2nc(N3CCCC3)c3nc(Cl)c(NCc4ccccc4)nc3n2)CC1",
    "GI50": "1.81 µM (inactive)"
  },
  {
    "compound": "O=C1C2Nc3ccccc3SC2C(=O)N1c1ccccc1C(F)(F)F (stereo unspecified)",
    "GI50": "5.19 µM (inactive)"
  },
  {
    "compound": "CCCCCC/C=C/C#CCCCCCCCC(=O)O",
    "GI50": "> 100 µM (inactive)"
  },
  {
    "compound": "Cc1ccc(/C=C2\\N=C(N3CCCC(CO)C3)NC2=O)cc1 (stereo unspecified)",
    "GI50": "> 100 µM (inactive)"
  },
  {
    "compound": "C/C=C1/CC(C)C(C)(O)C(=O)OCC2C(O)CN3CCC(OC1=O)C23 (stereo unspecified)",
    "GI50": "> 100 µM (inactive)"
  },
  {
    "compound": "C=CCCCCCCCCCOC1C=CC(O)C(CO)O1 (stereo unspecified)",
    "GI50": "21.9 µM (inactive)"
  },
  {
    "compound": "c1ccc(N2CCN(CCN3CCc4c([nH]c5ccccc45)C3c3cccnc3)CC2)cc1 (stereo unspecified)",
    "GI50": "> 100 µM (inactive)"
  },
  {
    "compound": "CCC1=NC(C(F)(F)F)(C(F)(F)F)N=C(/N=C(/N)N(C)C(C(C)C)P(=O)(OC(C)C)OC(C)C)O1 (stereo unspecified)",
    "GI50": "> 100 µM (inactive)"
  },
  {
    "compound": "CC1OC(=O)c2ccccc2NC1=O (stereo unspecified)",
    "GI50": "> 100 µM (inactive)"
  },
  {
    "compound": "COc1cccc(C2c3cc4c(cc3OC(C)(O)C2C)OCO4)c1O (stereo unspecified)",
    "GI50": "2.82 µM (inactive)"
  },
  {
    "compound": "O=C(O)C(Cl)(Cl)Cl",
    "GI50": "> 100 µM (inactive)"
  },
  {
    "compound": "CC1S(=O)(=O)OCCOS1(=O)=O",
    "GI50": "29.7 µM (inactive)"
  },
  {
    "compound": "Cn1cc2c(n1)c(N/N=C/c1ccccc1)nn1nnnc21",
    "GI50": "> 100 µM (inactive)"
  },
  {
    "compound": "Nc1ccc(S(=O)(=O)C23CC4CC(CC(C4)C2)C3)cc1",
    "GI50": "27.2 µM (inactive)"
  },
  {
    "compound": "COc1ccc2c(c1)[n+]([O-])c(C(=O)CC(=O)C(=O)Nc1cccc(Cl)c1C)c(C)[n+]2[O-]",
    "GI50": "44.5 µM (inactive)"
  },
  {
    "compound": "OCCCNc1[nH]cnc2nncc1-2",
    "GI50": "> 100 µM (inactive)"
  },
  {
    "compound": "N#Cc1ccc(C(=O)/C=C/c2ccc(O)c(O)c2)cc1",
    "GI50": "2.5 µM (inactive)"
  },
  {
    "compound": "CC(OC(C)(C)C)C1NC(=O)C(CCCCNC(=O)OC(C)(C)C)NC(=O)C(Cc2c[nH]c3ccccc23)NC(=O)C(Cc2ccccc2)NC(=O)C2(CCCC2)NC(=O)C(Cc2ccccc2)NC1=O (stereo unspecified) (cyclo([Ac5c]FWK(Boc)T(tBu)F); configuration not given here)",
    "GI50": "17.5 µM (inactive)"
  }
]

----------
- Test system: HL-60
- method-notes: NCI tumour cell line growth inhibition, 48 h
Activity calls are given as the source filed them. No stated cut-off is given here; in the data, active = GI50 up to about 1.1 µM and inactive = higher.
Outcomes: yes (active), no (inactive)

[
  {
    "compound": "C=C1C(=O)O[C@H]2C[C@@]3(COC(C)=O)C=COC=C(COC(=O)C(C)C)C3CC12 (stereo partly drawn)",
    "tested-system": "HL-60",
    "assigned-label": "no"
  },
  {
    "compound": "CO/C=C(/C(=O)OC)c1ccccc1Oc1c(F)c(F)c(F)c(F)c1F",
    "tested-system": "HL-60",
    "assigned-label": "yes"
  },
  {
    "compound": "CN1CCN(CCCN2c3ccccc3Sc3ccc(C(F)(F)F)cc32)CC1",
    "tested-system": "HL-60",
    "assigned-label": "no"
  },
  {
    "compound": "COc1ccc2c(c1)NC1(O)c3ccccc3C(=O)C21O (stereo not drawn)",
    "tested-system": "HL-60",
    "assigned-label": "no"
  },
  {
    "compound": "CC(C)Cc1ccc(C(C)C(=O)N2CCN(/C=C/c3ccccc3)CC2)cc1 (stereo not drawn)",
    "tested-system": "HL-60",
    "assigned-label": "no"
  },
  {
    "compound": "C[C@@H]1CCC2[C@@H](C)[C@H](O[C@H]3O[C@@H]4O[C@@]5(C)CCC6[C@H](C)CCC([C@H]3C)[C@]64OO5)O[C@@H]3O[C@@]4(C)CCC1[C@@]23OO4 (stereo partly drawn)",
    "tested-system": "HL-60",
    "assigned-label": "yes"
  },
  {
    "compound": "O=C(O)C(Cc1ccc2c(c1)CCC2)(Cc1ccc2c(c1)CCC2)C(=O)O",
    "tested-system": "HL-60",
    "assigned-label": "no"
  },
  {
    "compound": "COc1cc([C@@H]2c3cc4c(cc3[C@@H](NC(=O)c3ccc(C#N)cc3)C3COC(=O)[C@@H]32)OCO4)cc(OC)c1O (stereo partly drawn)",
    "tested-system": "HL-60",
    "assigned-label": "yes"
  }
]

----------
- Test system: OVCAR-4
- method-notes: NCI tumour cell line growth inhibition, 48 h
Calls of active or inactive are those of the source. Cut-off read from the data, not from the text of the source: active = GI50 up to about 1.1 µM and inactive = higher.

[
  {
    "compound": "CC(C)C(=O)CP(=O)(O)O",
    "tested-system": "OVCAR-4",
    "GI50": "> 100 µM (inactive)"
  },
  {
    "compound": "O=C1[C@@H]2C(c3ccccc3[N+](=O)[O-])=[N+](c3ccccc3)O[C@@H]2C(=O)N1c1ccc(Cc2ccc(N3C(=O)[C@H]4C(c5ccccc5[N+](=O)[O-])=[N+](c5ccccc5)O[C@H]4C3=O)cc2)cc1",
    "tested-system": "OVCAR-4",
    "GI50": "> 100 µM (inactive)"
  },
  {
    "compound": "Cc1ccccc1/N=C/c1ccc(N(CCC#N)S(=O)(=O)c2ccccc2)cc1",
    "tested-system": "OVCAR-4",
    "GI50": "> 100 µM (inactive)"
  },
  {
    "compound": "CCc1ccc(NCc2cc(OC)c(OC)c(OC)c2)cc1",
    "tested-system": "OVCAR-4",
    "GI50": "26.7 µM (inactive)"
  },
  {
    "compound": "N#CC(N)c1ccc(OCCCCCCCCCCOc2ccc(C(N)C#N)cc2)cc1 (centres undefined)",
    "tested-system": "OVCAR-4",
    "GI50": "> 100 µM (inactive)"
  },
  {
    "compound": "C=CC(C)(C)/C(=C\\CO[Si](C(C)C)(C(C)C)C(C)C)C(=O)N(C)c1ccccc1I",
    "tested-system": "OVCAR-4",
    "GI50": "23 µM (inactive)"
  },
  {
    "compound": "COc1ccc(NC(=S)N/N=C/c2cccc(C)n2)cc1",
    "tested-system": "OVCAR-4",
    "GI50": "> 24.1 µM (inactive)"
  },
  {
    "compound": "Oc1[nH]c(Nc2cccc(Cl)c2)nc2ncnc1-2",
    "tested-system": "OVCAR-4",
    "GI50": "> 100 µM (inactive)"
  },
  {
    "compound": "O=c1[nH]nc(Cc2ccc(Cl)cc2)n1/N=C/c1c[nH]c2ccccc12",
    "tested-system": "OVCAR-4",
    "GI50": "> 100 µM (inactive)"
  }
]
